Test system: SF-539 CNS
PROTOCOL_NOTES: NCI tumour cell line growth inhibition, 48 h
OBSERVABLE: TGI (µM)
Kindly answer with a numeric value in µM, unit omitted.

[in] GET /values?readout=TGI&item= COC(=O)c1c2c(c(C)[n+]([O-])c1C)C(=O)C=C(NCc1cccc(Cl)c1)C2=O
[out] 1.49

[in] Please answer likewise for Cc1cc2c(cc1C)C(=O)C1(C2)Cc2cc3c(cc2C1=O)CCC3 (centres undefined)
[out] 91.9

[in] Please answer likewise for COC(=O)[C@]1(c2ccc(N(C)C)cc2OC)C[C@@H]2CCCN(CCc3c1[nH]c1ccccc31)C2
[out] 36.8

[in] Please answer likewise for Cn1nc(C(F)(F)F)c(-c2cc(C(F)(F)F)cc(C(F)(F)F)c2)c1-c1ccc(OCc2ccc(Cl)cc2)cc1O
[out] 5.94

[in] Please answer likewise for COC(=O)C1CC(OC(C)=O)C=C2C(=O)CCC21 (centres undefined)
[out] 50.6
